Can you tell me Triple reuptake inhibition (Ratio %) SERT for the items I'm about to list?
target.entity: serotonin transporter (SERT) (Homo sapiens, UniProt P31645)
Construct: expressed in transfected cells; host or cells: HEK-293
Sequence (P31645 whole entry, species assumed): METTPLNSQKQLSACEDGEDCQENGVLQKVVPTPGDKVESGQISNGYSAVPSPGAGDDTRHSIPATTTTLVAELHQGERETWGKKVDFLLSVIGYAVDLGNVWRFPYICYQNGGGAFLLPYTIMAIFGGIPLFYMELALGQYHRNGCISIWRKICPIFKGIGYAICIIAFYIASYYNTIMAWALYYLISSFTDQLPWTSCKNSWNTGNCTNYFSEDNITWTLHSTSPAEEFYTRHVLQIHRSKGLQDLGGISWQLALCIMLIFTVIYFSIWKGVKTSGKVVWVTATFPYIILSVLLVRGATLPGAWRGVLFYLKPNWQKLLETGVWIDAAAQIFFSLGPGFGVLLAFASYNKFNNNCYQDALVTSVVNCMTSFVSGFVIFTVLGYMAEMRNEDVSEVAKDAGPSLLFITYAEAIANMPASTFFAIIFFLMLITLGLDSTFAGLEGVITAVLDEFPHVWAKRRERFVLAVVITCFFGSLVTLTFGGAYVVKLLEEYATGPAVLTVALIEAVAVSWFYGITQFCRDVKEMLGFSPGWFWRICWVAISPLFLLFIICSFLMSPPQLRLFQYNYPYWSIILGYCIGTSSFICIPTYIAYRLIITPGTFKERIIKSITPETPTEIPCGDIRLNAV
assay.name: Serotonin reuptake inhibition, [3H]-5-HT, HEK-293 cells transfected with 5-HT transporter cDNA
Format: cell-based
setup.conditions: compound 1 μM; [3H]-5-HT; relative to control without compound = 100%; lower value = more inhibition
The reply should contain only the number, in %.

Using the record for CCCCOc1ccc(S(=O)(=O)NCCN2CCC(Cc3ccc(Cl)c(Cl)c3)CC2)cc1 [Example 4] , report its Triple reuptake inhibition (Ratio %) SERT.
76.57

Using the record for CCCCOc1ccc(S(=O)(=O)NCCCN2CCN(CC3CCOCC3)CC2)cc1 [Example 25] , report its Triple reuptake inhibition (Ratio %) SERT.
84.44

Using the record for O=S(=O)(NCCCN1CCC(Cc2ccccc2)CC1)c1ccc(-c2ccccc2)cc1 [Example 56] , report its Triple reuptake inhibition (Ratio %) SERT.
56.50

Using the record for O=S(=O)(NCCCN1CCC(Cc2ccccc2)CC1)c1ccc(Oc2ccccc2)cc1 [Example 13] , report its Triple reuptake inhibition (Ratio %) SERT.
41.46

Using the record for O=S(=O)(NCCCCN1CCN(CCCc2ccccc2)CC1)c1ccc(-c2ccccc2)cc1 [Example 78] , report its Triple reuptake inhibition (Ratio %) SERT.
32.90

Using the record for CCCCOc1ccc(S(=O)(=O)NCCCN2CCC(Cc3ccc(C)cc3)CC2)cc1 [Example 29] , report its Triple reuptake inhibition (Ratio %) SERT.
39.39

----------
target.entity: norepinephrine transporter (NET) (Homo sapiens, UniProt P23975)
Construct: expressed in transfected cells; host or cells: HEK-293
Sequence (P23975 whole entry, species assumed): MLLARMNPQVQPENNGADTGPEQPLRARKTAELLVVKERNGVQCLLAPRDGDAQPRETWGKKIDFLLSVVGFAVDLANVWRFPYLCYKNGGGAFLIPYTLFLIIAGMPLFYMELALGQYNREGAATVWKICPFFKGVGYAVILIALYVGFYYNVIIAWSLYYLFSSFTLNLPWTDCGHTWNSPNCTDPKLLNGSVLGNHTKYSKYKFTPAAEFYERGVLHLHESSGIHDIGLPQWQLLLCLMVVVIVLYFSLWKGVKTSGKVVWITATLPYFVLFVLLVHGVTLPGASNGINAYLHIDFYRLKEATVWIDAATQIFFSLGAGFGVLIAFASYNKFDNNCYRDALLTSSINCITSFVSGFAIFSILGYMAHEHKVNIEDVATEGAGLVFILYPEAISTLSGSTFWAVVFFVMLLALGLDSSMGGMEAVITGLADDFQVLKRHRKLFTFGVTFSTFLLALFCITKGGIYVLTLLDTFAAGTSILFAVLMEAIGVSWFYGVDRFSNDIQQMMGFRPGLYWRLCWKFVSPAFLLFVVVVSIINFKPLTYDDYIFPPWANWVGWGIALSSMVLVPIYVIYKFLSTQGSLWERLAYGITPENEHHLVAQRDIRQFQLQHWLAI
assay.name: Norepinephrine reuptake inhibition, [3H]-NE, HEK-293 cells transfected with NE transporter cDNA
Format: cell-based
setup.conditions: concentration at which Ratio % is 50%; 6 concentrations 1 nM to 1 μM; read-out: Triple reuptake inhibition (IC50, μM) NET
Can you tell me IC50 for the items I'm about to list?
The reply should contain only the number, in µM.

Using the record for CCCCOc1ccc(S(=O)(=O)NCCCN2CCC(Cc3cccc(Cl)c3)CC2)cc1 , report its IC50.
0.041

Using the record for CCCCOc1ccc(S(=O)(=O)NCCCN2CCC(c3ccc(Cl)c(Cl)c3)CC2)cc1 , report its IC50.
0.55

Using the record for O=S(=O)(NCCCN1CCC(Cc2ccccc2)CC1)c1ccc(-c2ccccc2)cc1 , report its IC50.
0.641

Using the record for CCCCOc1ccc(S(=O)(=O)NCCCN2CCC(Cc3ccc(OC)cc3)CC2)cc1 , report its IC50.
1.7

Using the record for O=S(=O)(NCCCN1CCC(Cc2ccccc2)CC1)c1cccc2ccccc12 , report its IC50.
1.3

Using the record for CCCCOc1ccc(S(=O)(=O)NCCCN2CCC(Cc3ccc(F)c(F)c3)CC2)cc1 , report its IC50.
0.946

Using the record for O=S(=O)(NCCCN1CCC(Cc2ccccc2)CC1)c1ccc2ccccc2n1 , report its IC50.
1.35

Using the record for O=S(=O)(NCCCN1CCC(Cc2ccccc2)CC1)c1ccc(-c2ccc(F)cc2)cc1 , report its IC50.
0.429

Using the record for O=S(=O)(NCCN1CCC(Cc2ccccc2)CC1)c1ccc(-c2ccccc2)cc1 , report its IC50.
1.05

Using the record for O=S(=O)(NCCCN1CCC(Cc2ccccc2)CC1)c1ccc(Oc2ccccc2)cc1 , report its IC50.
0.112

Using the record for CCCCOc1ccc(S(=O)(=O)NCCCN2CCC(Cc3ccccc3)CC2)cc1 , report its IC50.
0.168

Using the record for O=C(CCN1CCCCC1)Nc1ccc(S(=O)(=O)NCCCN2CCC(Cc3ccccc3)CC2)cc1 , report its IC50.
1.56

Using the record for O=S(=O)(NCCCN1CCC(Cc2ccccc2)CC1)c1ccc(OC(F)(F)F)cc1 , report its IC50.
0.612

Using the record for CCCCOc1ccc(S(=O)(=O)NCCCN2CCC(Cc3ccc(F)cc3)CC2)cc1 , report its IC50.
0.749

Using the record for COc1ccc(S(=O)(=O)NCCCN2CCC(Cc3ccccc3)CC2)cc1 , report its IC50.
0.173

Using the record for CCCCOc1ccc(S(=O)(=O)NCCCN2CCC(Cc3ccc(Cl)c(Cl)c3)CC2)cc1 , report its IC50.
0.221

Using the record for O=S(=O)(NCCCN1CCC(Cc2ccccc2)CC1)c1ccc2ccccc2c1 , report its IC50.
1.25
